Source: ChEMBL document CHEMBL1137361

species on record: Cavia porcellus; assay: Inverse agonist effect on calcium-induced increase in resting tension of calcium-depleted guinea pig thoracic aorta at 10 nM; format: functional
Active and inactive are the calls of the source. The calls are words filed in the database; no cut-off is given here.
Recorded Endpoint: Activity

Molecule	Measured Result
COc1ccc2ccccc2c1OCCNC[C@@H]1COc2ccccc2O1	inactive
COc1cccc(-c2ccccc2)c1OCCNC[C@H]1COc2ccccc2O1	inactive
COc1cccc(OC)c1OCCNC[C@H]1COc2ccccc2O1.Cl	10%
COc1cccc(OC)c1OCCNCC1COc2ccccc2O1 (stereo not given)	25%

###

Measured Selectivity ratio, listed per entry.
molecular target: Adrenergic receptors; alpha-1 A & B (Homo sapiens) (UniProt P35348+P35368); assay: Selectivity for human adrenergic alpha 1B receptor over human adrenergic alpha 1A receptor; type: protein assay

Entry Smiles	Selectivity ratio
COc1ccc2c(c1OCCNC[C@@H]1COc3ccccc3O1)CCCC2	4.3
COc1ccc2c(c1OCCNC[C@H]1COc3ccccc3O1)CCCC2	6.8
COc1ccc2ccccc2c1OCCNC[C@H]1COc2ccccc2O1	10
COc1cccc(OC)c1OCCNC[C@@H]1COc2cc3c(cc2O1)CCCC3	4
COc1ccc2ccccc2c1OCCNC[C@@H]1COc2cc3c(cc2O1)CCCC3	1.7
COc1cccc(OC)c1OCCNC[C@H]1COc2cc3ccccc3cc2O1	26.3
COc1cccc(OC)c1OCCNC[C@@H]1COc2cc3ccccc3cc2O1	4.2
COc1cccc(-c2ccccc2)c1OCCNC[C@@H]1COc2ccccc2O1	16.2
COc1cccc(-c2ccccc2)c1OCCNC[C@H]1COc2ccccc2O1	14.8
COc1ccc2ccccc2c1OCCNC[C@@H]1COc2ccccc2O1	18.6
COc1ccc(-c2ccccc2)cc1OCCNC[C@@H]1COc2ccccc2O1	3.8
